test-summary: qHTS for differential inhibitors of proliferation of Plasmodium falciparum line GB4 (AID 1816);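 also: parasite growth measured after 72 h incubation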
condition-parameters: Plasmodium falciparum GB4 proliferation inhibition; series mostly up to 28.7 µM
Records with an inconclusive call do not appear. Active and inactive are the calls of the source. Calls follow the shape of the dose curve; as a rule, active = well fitted curve in the direction sought with a large enough effect; inconclusive = small, poorly fitted or top-dose-only effect, or another doubt; inactive = no such curve, though single readings can be large or run the other way.
Outcomes: true = active, false = inactive

* CC(C)(Oc1ccc(C2CC2(Cl)Cl)cc1)C(=O)O (stereo not drawn) | false
* CCOC(=O)C(C)(C)Oc1ccc(Cl)cc1 | false
* Fc1ccc([C@@H]2CCNC[C@H]2COc2ccc3c(c2)OCO3)cc1 | true

* * *

test-summary: qHTS of pediatric cancer cell lines to identify multiple opportunities for drug repurposing: Confirmatory screen for OHS-50 cells (AID 1347128);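 also: compound exposure lasted 48 h at 37 degrees C; nearly all actives have a fitted effect of over 55% in size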
condition-parameters: OHS-50 osteosarcoma cells viability; series mostly up to 45.9 µM
Records with an inconclusive call do not appear. Calls of active or inactive are those of the source. Calls follow the shape of the dose curve; as a rule, active = well fitted cell-killing curve with a large enough effect; inconclusive = small, poorly fitted or top-dose-only effect, or effect the other way; inactive = no such curve, though single readings can be large or run the other way.
Outcomes: True for active, False for inactive

- O=C1c2c(O)ccc(O)c2C(=O)c2c(NCCNCCO)ccc(NCCNCCO)c21: True
- CS(=O)(=O)Nc1ccc([N+](=O)[O-])cc1Oc1ccccc1: False
- NC12CC3CC(CC(C3)C1)C2: False
- CC[C@@]1(O)C(=O)OCc2c1cc1n(c2=O)Cc2cc3c(CN(C)C)c(O)ccc3nc2-1: True
- CCCCc1oc2ccccc2c1C(=O)c1cc(I)c(OCCN(CC)CC)c(I)c1: True
- CN(Cc1cnc2nc(N)nc(N)c2n1)c1ccc(C(=O)N[C@@H](CCC(=O)O)C(=O)O)cc1: True

* * *

test-summary: Quantitative High-Throughput drug screen in 47 multiple myeloma cell lines against the NCATS MIPE library collection: AMO1_DSMZ cell viability assay (AID 1918927; also: nearly all actives have a fitted effect of over 30% in size)
condition-parameters: AMO1 myeloma cells viability, CellTiter-Glo ATP luminescence, 48 h; series mostly up to 45.8 µM
Inconclusive results are not listed. Calls of active or inactive are those of the source. Calls follow the shape of the dose curve; as a rule, active = well fitted cell-killing curve with a large enough effect; inconclusive = small, poorly fitted or top-dose-only effect, or effect the other way; inactive = no such curve, though single readings can be large or run the other way.
Outcomes: active, inactive

- CNCCCC12CCC(c3ccccc31)c1ccccc12: active
- Cc1cn([C@H]2C=C[C@@H](CO)O2)c(=O)[nH]c1=O: inactive
- COc1ccccc1N1CCN(CC(O)COc2cccc3ccccc23)CC1 (stereo not drawn): inactive

* * *

test-summary: Quantitative High-Throughput drug screen in 47 multiple myeloma cell lines against the NCATS MIPE library collection: L363_DSMZ cell viability assay (AID 1918984); also: nearly all actives have a fitted effect of over 40% in size
condition-parameters: L363 myeloma viability, CellTiter-Glo ATP luminescence, 48 h; series mostly up to 45.8 µM
Inconclusive results are not listed. Active and inactive are the calls of the source. Calls follow the shape of the dose curve; as a rule, active = well fitted cell-killing curve with a large enough effect; inconclusive = small, poorly fitted or top-dose-only effect, or effect the other way; inactive = no such curve, though single readings can be large or run the other way.
Outcomes: label 1 for active, label 0 for inactive

• CC(C)(C)C(=O)Oc1ccc(S(=O)(=O)Nc2ccccc2C(=O)NCC(=O)O)cc1 = label 0
• Cn1c(=O)c2c(ncn2C)n(C)c1=O = label 0
• CC1(CN2CCC(n3c(=O)[nH]c4ccccc43)CC2)OCc2ccccc2-n2cccc21 (stereo unspecified) = label 0
• Cn1cnc2c1c(=O)[nH]c(=O)n2C = label 1
• CC(C)Cc1ccc(C(C)C(=O)O)cc1 (stereo unspecified) = label 0
• CN(C)CCCN1c2ccccc2CCc2ccc(Cl)cc21 = label 1

* * *

test-summary: Quantitative High-Throughput drug screen in 47 multiple myeloma cell lines against the NCATS MIPE library collection: VP6_DJ cell viability assay (AID 1919867); also: potency is read from the fitted curve at half-maximal effect; nearly all actives have a fitted effect of over 40% in size
condition-parameters: ATP luminescence, 48 h; series mostly up to 45.8 µM
Inconclusive results are not listed. Activity calls are given as the source filed them. Calls follow the shape of the dose curve; as a rule, active = well fitted cell-killing curve with a large enough effect; inconclusive = small, poorly fitted or top-dose-only effect, or effect the other way; inactive = no such curve, though single readings can be large or run the other way.
// reported Potency per item
observed-property: Potency

- OCCN1CCN(CCCN2c3ccccc3Sc3ccc(C(F)(F)F)cc32)CC1: 16.6 µM (active)
- Nc1nc2c(ncn2COC(CO)CO)c(=O)[nH]1: 18.7 µM (active)
- NC12CC3CC(CC(C3)C1)C2: 3.32 µM (active)
- O=c1c(O)c(-c2ccc(O)c(O)c2)oc2cc(O)cc(O)c12: 16.6 µM (active)
- Clc1ccc(C(c2ccccc2Cl)C(Cl)Cl)cc1 (stereo unspecified): 6.62 µM (active)

Reference source: PubChem BioAssay (NCATS)
